NO Kd (NO dissociation): recorded values
Test: Stopped-flow kinetics of release of NO from the nitrophorins
Format: binding, Rhodnius prolixus
Settings: pH 5.0; 5–10 μM in 100 mM sodium phosphate buffer
quantity.name: NO Kd (NO dissociation) (s^–1)

- molecule: "NP4: NO-carrying heme protein from the salivary glands of Rhodnius prolixus, recombinant, N-terminus ACTK... (protein) ACTKNAIAQTGFNKDKYFNGDVWYVTDYLDLEPDDVPKRYCAALAAGTASGKLKEALYHYDPKTQDTFYDVSELQVESLGKYTANFKKVDKNGNVKVAVTAGNYYTFTVMYADDSSALIHTCLHKGNKDLGDLYAVLNRNKDAAAGDKVKSAVSAATLEFSKFISTKENNCAYDNDSLKSLLTK"
  test.result: 0.020
- molecule: "(M0)NP1sym: (M0)NP1 containing the symmetrical heme, 2,4-dimethyldeuterohemin (protein, UniProt Q26239 24-207, looked up, Met0; 2,4-dimethyldeuterohemin heme) Nitrophorin-1: KCTKNALAQTGFNKDKYFNGDVWYVTDYLDLEPDDVPKRYCAALAAGTASGKLKEALYHYDPKTQDTFYDVSELQEESPGKYTANFKKVEKNGNVKVDVTSGNYYTFTVMYADDSSALIHTCLHKGNKDLGDLYAVLNRNKDTNAGDKVKGAVTAASLKFSDFISTKDNKCEYDNVSLKSLLTK"
  test.result: 0.218
- molecule: "Nat. N-term NP1 ^c: native N-terminal NP1 (N-terminus KC...) (protein, UniProt Q26239 24-207, looked up) Nitrophorin-1: KCTKNALAQTGFNKDKYFNGDVWYVTDYLDLEPDDVPKRYCAALAAGTASGKLKEALYHYDPKTQDTFYDVSELQEESPGKYTANFKKVEKNGNVKVDVTSGNYYTFTVMYADDSSALIHTCLHKGNKDLGDLYAVLNRNKDTNAGDKVKGAVTAASLKFSDFISTKDNKCEYDNVSLKSLLTK"
  test.result: 0.032
- molecule: "(M0)NP1: recombinant NP1 retaining methionine M0 at the N-terminus (MKCTK...) (protein) MKCTKNALAQTGFNKDKYFNGDVWYVTDYLDLEPDDVPKRYCAALAAGTASGKLKEALYHYDPKTQDTFYDVSELQEESPGKYTANFKKVEKNGNVKVDVTSGNYYTFTVMYADDSSALIHTCLHKGNKDLGDLYAVLNRNKDTNAGDKVKGAVTAASLKFSDFISTKDNKCEYDNVSLKSLLTK"
  test.result: 0.426
